These measurements were taken from the supplement of paper PMC9112550.

Give measured shrunken log2 fold change for each item. Keep answers brief.
- System: Escherichia coli TOP10
- measurement.protocol: shrunken log2 fold change of peptide-encoding DNA abundance (4.5 h post-induction vs induction); higher = less antimicrobial activity (less host growth inhibition)
- applied.conditions: time post-induction: 4.5 h; library: site-saturation at positions 5, 18, 19, 20

Below are worked cases with known answers.
# sequence.input, shrunken log2 fold change
measured = [
    ("RRIRDRPPRLPRPRPRPLPGPRP", 0.312),
    ("RRIRCRPPRLPRPRPRPFQPPRP", -0.281),
    ("RRIRPRPPRLPRPRPRPFHQPRP", -0.216),
    ("RRIRMRPPRLPRPRPRPSIIPRP", 0.0973),
    ("RRIRERPPRLPRPRPRPITDPRP", -0.00102),
]

For each listed entry, give its shrunken log2 fold change.
1. RRIRMRPPRLPRPRPRPIRYPRP
2. RRIRQRPPRLPRPRPRPDSPPRP
3. RRIRLRPPRLPRPRPRPLSGPRP
4. RRIRERPPRLPRPRPRPSGEPRP

## Output
0.0982
0.0174
0.15
-0.157

## Input For the sequence RRIRTRPPRLPRPRPRPPIYPRP , report shrunken log2 fold change.
## Output -0.305

###

- Tested on: Escherichia coli TOP10;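 also: peptides expressed intracellularly from a pBAD plasmid library in pooled LB shake-flask culture, induced with 0.3% L-arabinose, DNA abundance read by NGS, three biological replicates, DESeq2 with apeglm shrinkage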
- measurement.protocol: shrunken log2 fold change of peptide-encoding DNA abundance (4.5 h post-induction vs induction); higher = less antimicrobial activity (less host growth inhibition)
- applied.conditions: time post-induction: 4.5 h; library: site-saturation at positions 5, 18, 19, 20
measurement.kind: shrunken log2 fold change
Answers are plain numbers.

# sequence.input, assay.value
rows = [
    ("RRIRYRPPRLPRPRPRPWLSPRP", -0.205),
]

For each listed entry, give its shrunken log2 fold change.
1. RRIRHRPPRLPRPRPRPWICPRP
2. RRIRWRPPRLPRPRPRPIYAPRP
3. RRIRHRPPRLPRPRPRPDFFPRP
4. RRIRARPPRLPRPRPRPHPKPRP
5. RRIRKRPPRLPRPRPRPRYFPRP
6. RRIRPRPPRLPRPRPRPWNEPRP
7. RRIRIRPPRLPRPRPRPSRHPRP
8. RRIRKRPPRLPRPRPRPFQVPRP

## Output
[-0.0191, -0.0827, -0.26, 0.508, 0.135, -0.138, -0.384, 0.0377]

For each listed entry, give its shrunken log2 fold change.
1. RRIRQRPPRLPRPRPRPVKKPRP
2. RRIRFRPPRLPRPRPRPWSGPRP
3. RRIRDRPPRLPRPRPRPPCHPRP
4. RRIRWRPPRLPRPRPRPEPFPRP
5. RRIRQRPPRLPRPRPRPSVLPRP

## Output
1. -0.0152
2. -0.221
3. -0.363
4. -0.0317
5. -0.0352

For each listed entry, give its shrunken log2 fold change.
1. RRIRCRPPRLPRPRPRPHQSPRP
2. RRIRTRPPRLPRPRPRPHHSPRP
3. RRIRNRPPRLPRPRPRPCLHPRP
4. RRIRQRPPRLPRPRPRPADNPRP
5. RRIRTRPPRLPRPRPRPHHRPRP
6. RRIRHRPPRLPRPRPRPFPAPRP
7. RRIRTRPPRLPRPRPRPVVIPRP

## Output
1. -0.0603
2. -0.133
3. -0.888
4. -0.536
5. -0.655
6. -0.405
7. 1.29
